system: OVCAR-3; experiment: NCI tumour cell line growth inhibition, 48 h
Active and inactive are the calls of the source. No stated cut-off is given here; in the data, active = GI50 up to about 1.1 µM and inactive = higher.
MEASURED_PROPERTY: GI50

Examples from the recorded data:
COC(=O)C1C2CCCN2OC1(C)CO (stereo not drawn) ... > 100 µM (inactive)
COC(=O)C(C(=O)C(=O)Nc1ccc([N+](=O)[O-])cc1)c1nc2ccc([N+](=O)[O-])cc2nc1O (stereo not drawn) ... > 100 µM (inactive)
O=C(Nn1c(-c2ccccc2)nc2ccccc2c1=O)c1ccccc1O ... 30.3 µM (inactive)
O=C(NCCCCCCCCCCCCNC(=O)Nc1cccc2ccccc12)Nc1cccc2ccccc12 ... 16.7 µM (inactive)
CSc1c(C#N)c(N)nc2c(/N=N\c3ccc(Cl)cc3)c(N)nn12 ... 1.85 µM (inactive)

# input Dear colleague, please send me the reported GI50 for COC(=O)OCC1OC(N2C(=O)NC(=O)C(Br)C2N=[N+]=[N-])CC1OC(=O)OC (stereo not drawn) when you can.
# output > 100 µM (inactive)

# input Dear colleague, please send me the reported GI50 for `CC(=O)Oc1c2oc3ccc(Cl)cc3c(=O)c2c(O)c2ccsc12` when you can.
# output > 100 µM (inactive)

# input Dear colleague, please send me the reported GI50 for CC1C=CC(=O)C(n2cc(F)c(=O)[nH]c2=O)O1 (stereo not drawn) when you can.
# output 17.3 µM (inactive)

# input Dear colleague, please send me the reported GI50 for `CCC(=O)ONC(=O)Cn1ccc([N+](=O)[O-])n1` when you can.
# output > 100 µM (inactive)

# input Dear colleague, please send me the reported GI50 for COC(=O)/C(C#N)=C1\CCC(O)N1C (stereo not drawn) when you can.
# output > 100 µM (inactive)

# input Dear colleague, please send me the reported GI50 for `O=C1Nc2cccc(Cl)c2/C1=C\c1cccnc1` when you can.
# output 5.64 µM (inactive)

# input Dear colleague, please send me the reported GI50 for O=C1N2CCc3c([nH]c4ccccc34)C23CC2CCCCC12S3 (stereo not drawn) when you can.
# output > 100 µM (inactive)

# input Dear colleague, please send me the reported GI50 for C=CC(=O)NCCSCCCOC1(C(=O)O)CC(O)C(NC(C)=O)C(C(O)C(O)CO)O1 (stereo not drawn) when you can.
# output > 100 µM (inactive)

# input Dear colleague, please send me the reported GI50 for `O=c1c2cc(I)ccc2nc(-c2cccs2)n1Nc1ccccc1` when you can.
# output 1.16 µM (inactive)

# input Dear colleague, please send me the reported GI50 for COC(=O)Cc1cc(O)c(C/C=C(\C)CC/C=C(\C)C(O)C(=O)C=C(C)C)cc1O (stereo not drawn) when you can.
# output 19.4 µM (inactive)
